system: Klebsiella pneumoniae; assay: Antibacterial activity against Klebsiella pneumoniae by disc diffusion method; type: functional; conditions: Klebsiella pneumoniae
Known MIC of a selection of compounds
Kindly provide the numeric value in µg/mL only, without the unit symbol.

smiles_input=CCc1nn2c(=O)c3c4c(sc3nc2s1)CCCC4 experimental_value=10
smiles_input=O=c1c2c3c(sc2nc2sc(-c4ccc([N+](=O)[O-])cc4)nn12)CCCC3 experimental_value=10
smiles_input=Cc1cccc(-c2nn3c(=O)c4c5c(sc4nc3s2)CCCC5)c1 experimental_value=80
smiles_input=Nn1c(SCC(=O)c2ccnc(Cl)c2)nc2sc3c(c2c1=O)CCCC3 experimental_value=80
smiles_input=Nn1c(SCC(=O)c2ccc(O)c(O)c2)nc2sc3c(c2c1=O)CCCC3 experimental_value=80
smiles_input=Cc1cc(C)cc(-c2nn3c(=O)c4c5c(sc4nc3s2)CCCC5)c1 experimental_value=10
smiles_input=COc1ccc(C(=O)CSc2nc3sc4c(c3c(=O)n2N)CCCC4)cc1 experimental_value=12.5
smiles_input=Cc1nn2c(=O)c3c4c(sc3nc2s1)CCCC4 experimental_value=10
smiles_input=O=c1c2c3c(sc2nc2sc(-c4ccccc4)nn12)CCCC3 experimental_value=60

Next compound, please.
[in] Please indicate MIC recorded for "CCCc1nn2c(=O)c3c4c(sc3nc2s1)CCCC4"
[out] 6.25
